tested on: SNB-19 CNS; test: NCI tumour cell line growth inhibition, 48 h
Examples of compounds with documented TGI follow.
Use µM as the unit, but write only the number.

Examples from the recorded data:
{"compound": "CC(=O)OC1C(C)OC(OC2C[C@](O)(C(C)=O)Cc3c(O)c4c(c(O)c32)C(=O)c2ccccc2C4=O)C(F)C1OC(C)=O (stereo not given in full)", "target-system": "SNB-19 CNS", "assay-value": 4.99}
{"compound": "COc1cc2c(cc1OCCCN1CCN(CCCn3c4ccccc4c4ccccc43)CC1)N=C[C@@H]1CCCN1C2=O", "target-system": "SNB-19 CNS", "assay-value": 1.17}
{"compound": "O=C(Nc1cccc(C(F)(F)F)c1)Nc1cc(S(=O)(=O)NC2CC2)ccc1-c1ccsc1", "target-system": "SNB-19 CNS", "assay-value": 13}
{"compound": "O=C(Nc1cccc(C(F)(F)F)c1)Nc1ccc(OCc2nnc(-c3ccccc3)o2)c(F)c1", "target-system": "SNB-19 CNS", "assay-value": 35.5}

--- query ---
Q. Fill blank: measured TGI of the compound "Cc1c(-c2ccc(N3CCc4cccc(C(=O)Nc5nc6ccccc6s5)c4C3)nc2C(=O)O)cnn1CC12CC3CC(CC(C3)C1)C2" is ____.
A. 19.6

====

test system: TK-10 renal; assay: NCI tumour cell line growth inhibition, 48 h
Examples of molecules with documented TGI follow.

{"molecule": "CCc1n[nH]c(=O)n1-c1ccncc1", "target-system": "TK-10 renal", "TGI": "> 100 µM"}

--- query ---
Q. Fill blank: measured TGI of the molecule "COc1cc2c(cc1OCCCN1CCN(CCCn3c4ccccc4c4ccccc43)CC1)N=C[C@@H]1CCCN1C2=O" is ____.
A. 1.07 µM

====

tested on: COLO 205 colon; test: NCI tumour cell line growth inhibition, 48 h
Examples of molecules with documented TGI follow.

Examples from the recorded data:
{"molecule": "C(/Cc1ccc2c(c1)OCO2)=N\\NC1=NCCCCN1", "TGI": "> 100 µM"}
{"molecule": "CC(=O)OCC1OC(OC(C)=O)C(NC#N)C(OC(C)=O)C1OC(C)=O (stereo not given)", "TGI": "> 100 µM"}
{"molecule": "CC1=C(C(=O)OC(C)(C)C)C(c2ccc([N+](=O)[O-])cc2)C(C(=O)OC(C)(C)C)=C(C)N1", "TGI": "39.8 µM"}

Q. Fill blank: measured TGI of the molecule "O=C(CCc1ccccc1)NCCc1ccc(O)c(O)c1" is ____.
A. 58.5 µM

Q. Could you do the same for CN1OC(CO)CC12C1CC3CC(C1)CC2C3 (stereo not given) , please?
A. > 100 µM

Q. Could you do the same for COc1ccc(C[C@H](N)C(=O)N[C@@H]2[C@@H](CO)OC(n3cnc4c(N(C)C)ncnc43)[C@@H]2O)cc1 (stereo not given in full) , please?
A. 0.756 µM

Q. Could you do the same for "COc1cc2c(cc1OCCCN1CCN(CCCn3c4ccccc4c4ccccc43)CC1)N=C[C@@H]1CCCN1C2=O" , please?
A. 0.235 µM

Q. Could you do the same for "C/C(=N\NC(=O)c1ccncc1)c1ccccc1O" , please?
A. > 100 µM

Q. Could you do the same for "O=C(CO[N+](=O)[O-])OCC(=O)c1ccccc1" , please?
A. > 100 µM
